Target: calmodulin (CaM), full-length, amino acids 2-148 (human, UniProt P0DP23 2-148)
Assay: ITC
Where no end group is shown, it is not given here. The star is where a group is joined. Farnesyl = CC(C)=CCC/C(C)=C/CC/C(C)=C/C*
The entries below are paired with their reported Kd.
Write the number in µM without appending the unit.

// known answers, use as guide
KSKTKC(geranyl) (not fully specified (C-terminus); also: methylated (site not given here)) [KSKTKC-geranyl methylated (KSKTKC-GMe)] : 3
KSKTKC(Farnesyl)-OMe [KSKTKC-FMe] : 0.4

Next, consider the following binder.
Ask | Which value of Kd has been reported for KSKTKC (not fully specified; cysteine with a five-carbon prenyl group, methylated (PMe)) [KSKTKC-prenyl methylated (KSKTKC-PMe)] in the records?
Reply | 30
